System: A549 cells
Method notes: CCK-8 proliferation assay, A549
Format: cell-based, human
Conditions used: 48 h, CCK-8, mean ± SD
Parameter measured: IC50
Answer with the figure and its unit, nothing else.

Return IC50 measured with A549 cells given this compound: COc1ccc(/C=C\c2cc(OC)c(OC)c(OC)c2)cc1OP(=O)(O)O [CA-4P, reference compound]
0.033 µM

###

Tested on: MCF-7 cells
Method notes: CCK-8 proliferation assay, MCF-7
Format: cell-based, human
Conditions used: Homo sapiens, MCF7; 48 h, CCK-8, mean ± SD
pIC50: −log10 of the molar value.
Parameter measured: pIC50

Observe how each entry below is paired with its result.
{"columns": ["Molecule", "Parameter measured", "Observed"],
 "data": [
  ["COc1ccc(N2C(=O)[C@H](c3ccc(Cl)cc3)[C@H]2c2ccc(N=[N+]=[N-])cc2)cc1 (relative stereo)", "pIC50", "< 4.70"],
  ["COc1cc(N2C(=O)[C@@H](c3ccccc3)[C@@H]2c2ccc(-n3cc(COc4cccc([N+](=O)[O-])c4)nn3)cc2)cc(OC)c1OC (relative stereo)", "pIC50", "< 4.70"]
]}

Return pIC50 measured with MCF-7 cells given this molecule: COc1ccc(N2C(=O)[C@H](c3ccccc3)[C@H]2c2ccc(N=[N+]=[N-])cc2)cc1OC (relative stereo)
< 4.70

FYI, the data here is from paper PMC5630639.
